- System: MIA-PaCa-2 pancreatic cancer cell line (KRAS G12C)
- ASSAY_PROTOCOL: Cell proliferation assay (CellTiter 96 Aqueous One)
- Assay type: cell-based
- MEASUREMENT_CONDITIONS: Homo sapiens, MIA PaCa-2, MIA PaCa-2
READOUT_NAME: IC50

> print(dat)
                                   compound      result
1  COc1ccc2cnc(-c3nc(O)c4scc(-c5ccccn5)c4n3)n2c1  5 to 10 µM

Value (IC50, MIA-PaCa-2 pancreatic cancer cell line (KRAS G12C)) for record "CC(C)OCCn1ccnc1-c1nc(O)c2scc(-c3ccccn3)c2n1" = 1 to 4.99 µM

Test item Cc1c(-c2ccn(C(C)C)n2)sc2nc(-c3nccn3C)nc(NCCC3CCC(=O)N3)c12 (racemic) ; MIA-PaCa-2 pancreatic cancer cell line (KRAS G12C); reported IC50 was > 10 µM

Form field IC50 for item "Cc1sc2c(O)nc(-c3ccccn3)nc2c1-c1ccccn1" on MIA-PaCa-2 pancreatic cancer cell line (KRAS G12C): 5 to 10 µM

Kindly note: MIA-PaCa-2 pancreatic cancer cell line (KRAS G12C), COCCn1ccnc1-c1nc(N[C@@H]2CC[C@H](OC)C2)c2c(-c3ccccc3)c(-c3ccn(C)n3)sc2n1 (racemic) , IC50 value reported: 1 to 4.99 µM

Given the compound "COc1ccnc(Nc2nc(-c3nccn3C)nc3sc(-c4ccn(C(C)C)n4)c(C)c23)n1" and test system MIA-PaCa-2 pancreatic cancer cell line (KRAS G12C), the measured IC50 is 1 to 4.99 µM
